# MIC annotations
System: Enterobacter cloacae
Test: Antimicrobial activity against Enterobacter cloacae isolate 656 containing PFGE genetic clone A expressing beta-lactamase KPC-2 and SHV-12 gene by Etest
Format: functional
The answer is to be given in µg/mL; state only the numeric part.

Example results:
MOLECULE	SUBJECT OF TEST	MIC, µg/mL
C[C@@H](O)[C@H]1C(=O)N2C(C(=O)O)=C(SCCNC=N)C[C@H]12 [IMIPENEM ANHYDROUS]	Enterobacter cloacae	32
C[C@@H](O)[C@H]1C(=O)N2C(C(=O)O)=C(S[C@@H]3CN[C@H](C(=O)Nc4cccc(C(=O)O)c4)C3)[C@H](C)[C@H]12	Enterobacter cloacae	16
C[C@H]1COc2c(N3CCN(C)CC3)c(F)cc3c(=O)c(C(=O)O)cn1c23.C[C@H]1COc2c(N3CCN(C)CC3)c(F)cc3c(=O)c(C(=O)O)cn1c23.O	Enterobacter cloacae	0.5
CCn1cc(C(=O)O)c(=O)c2ccc(C)nc21	Enterobacter cloacae	16

From here, focus on the item given below.
query: Name the reported MIC value associated with the molecule C[C@@H](O)[C@H]1C(=O)N2C(C(=O)O)=C(S[C@@H]3CN[C@H](C(=O)N(C)C)C3)[C@H](C)[C@H]12
result: 6
